Test system: giant foxtail (Setaria faberii)
Assay text: Test B pre-/postemergence plant response
Assay type: in vivo
Run parameters: 250 g ai/ha, Preemergence, 0 to 100 scale
For each entry below, report its Plant response rating, Foxtail, Giant value.
Give bare numbers.

Request the reported Plant response rating, Foxtail, Giant associated with O=C1CCCC(O)=C1C(=O)c1cnc(-c2ccccc2)n(-c2ccccc2Br)c1=O [Compound 37]
75

Try the molecule Cc1cccc(-n2c(-c3ccccc3)ncc(C(=O)C3=C(O)CCCC3=O)c2=O)c1C [Compound 27]
95

Try the molecule CCCc1ncc(C(=O)C2=C(O)CCCC2=O)c(=O)n1CCC [Compound 72]
65

Try the molecule Cc1ccc(F)c(-n2c(-c3ccccc3)ncc(C(=O)C3=C(O)CCCC3=O)c2=O)c1 [Compound 51]
75

---
Request the reported Plant response rating, Foxtail, Giant associated with Cc1cccc(-n2c(-c3ccccc3)ncc(C(=O)C3=C(O)CCCC3=O)c2=O)c1F [Compound 58]
75

###

For each entry below, report its Plant response rating, Flood, Sedge, Umbrella value.
Tested on: umbrella sedge (Cyperus difformis)
Assay text: Test B flooded paddy test
Format: in vivo
Run parameters: 250 g ai/ha; flooded paddy test; visual rating on 0 to 100 scale (0 no effect, 100 complete control) after 13 to 15 days
One number for each entry.

Request the reported Plant response rating, Flood, Sedge, Umbrella associated with O=C1CCCC(O)=C1C(=O)c1cnc(-c2ccccc2)n(-c2ccccc2Br)c1=O [Compound 37]
40

Try the molecule O=C1CCCC(O)=C1C(=O)c1cnc(-c2cccs2)n(-c2ccccc2)c1=O [Compound 66]
50

Try the molecule Cc1ccc(-n2c(-c3cccc(C)c3)ncc(C(=O)C3=C(O)CCCC3=O)c2=O)cc1 [Compound 211]
80

Try the molecule O=C1CCCC(O)=C1C(=O)c1cnc(-c2ccccc2)n(-c2ccc(F)cc2)c1=O [Compound 24]
75

With those in mind, consider the next molecule.
Request the reported Plant response rating, Flood, Sedge, Umbrella associated with Cc1cccc(-n2c(-c3ccccc3)ncc(C(=O)C3=C(O)CCCC3=O)c2=O)c1C [Compound 27]
85

###

For each entry below, report its Plant response rating, Barnyardgrass value.
Test system: barnyardgrass (Echinochloa crus-galli)
Assay text: Test B flooded paddy test
Type: in vivo
Run parameters: Flood (flooded paddy test), 62 g ai/ha; scale 0 to 100, 0 is no effect, 100 is complete control; 13 to 15 days
Numbers only.

Past entries and their recorded results:
Request the reported Plant response rating, Barnyardgrass associated with Cc1cccc(C)c1-n1c(-c2ccccc2)ncc(C(=O)C2=C(O)CCCC2=O)c1=O
0

Try the compound O=C1CCCC([O-])=C1C(=O)c1cnc(-c2ccccc2)n(-c2ccc(Cl)cc2)c1=O.[K+]
0

Try the compound COc1ccccc1-n1c(-c2ccccc2)ncc(C(=O)C2=C(O)CCCC2=O)c1=O
20

Try the compound O=C1CCCC([O-])=C1C(=O)c1cnc(-c2ccccc2)n(-c2ccccc2)c1=O.[K+]
0

Try the compound O=C1CCCC(O)=C1C(=O)c1cnc(-c2cccc(Cl)c2)n(-c2ccccc2)c1=O
0

Provide the reported Plant response rating, Barnyardgrass of each entry below, same order.
1. Cc1cc(Cl)ccc1-n1c(-c2ccccc2)ncc(C(=O)C2=C(O)CCCC2=O)c1=O
2. O=C1CCCC(O)=C1C(=O)c1cnc(-c2ccc(Cl)cc2)n(-c2ccccc2)c1=O

20
0
